- MEASUREMENT_TARGET: USP11 (Homo sapiens, UniProt P51784, Q402E/Y833E)
- Construct: biotin-labelled for BLI
- Sequence (P51784 whole entry Q402E/Y833E): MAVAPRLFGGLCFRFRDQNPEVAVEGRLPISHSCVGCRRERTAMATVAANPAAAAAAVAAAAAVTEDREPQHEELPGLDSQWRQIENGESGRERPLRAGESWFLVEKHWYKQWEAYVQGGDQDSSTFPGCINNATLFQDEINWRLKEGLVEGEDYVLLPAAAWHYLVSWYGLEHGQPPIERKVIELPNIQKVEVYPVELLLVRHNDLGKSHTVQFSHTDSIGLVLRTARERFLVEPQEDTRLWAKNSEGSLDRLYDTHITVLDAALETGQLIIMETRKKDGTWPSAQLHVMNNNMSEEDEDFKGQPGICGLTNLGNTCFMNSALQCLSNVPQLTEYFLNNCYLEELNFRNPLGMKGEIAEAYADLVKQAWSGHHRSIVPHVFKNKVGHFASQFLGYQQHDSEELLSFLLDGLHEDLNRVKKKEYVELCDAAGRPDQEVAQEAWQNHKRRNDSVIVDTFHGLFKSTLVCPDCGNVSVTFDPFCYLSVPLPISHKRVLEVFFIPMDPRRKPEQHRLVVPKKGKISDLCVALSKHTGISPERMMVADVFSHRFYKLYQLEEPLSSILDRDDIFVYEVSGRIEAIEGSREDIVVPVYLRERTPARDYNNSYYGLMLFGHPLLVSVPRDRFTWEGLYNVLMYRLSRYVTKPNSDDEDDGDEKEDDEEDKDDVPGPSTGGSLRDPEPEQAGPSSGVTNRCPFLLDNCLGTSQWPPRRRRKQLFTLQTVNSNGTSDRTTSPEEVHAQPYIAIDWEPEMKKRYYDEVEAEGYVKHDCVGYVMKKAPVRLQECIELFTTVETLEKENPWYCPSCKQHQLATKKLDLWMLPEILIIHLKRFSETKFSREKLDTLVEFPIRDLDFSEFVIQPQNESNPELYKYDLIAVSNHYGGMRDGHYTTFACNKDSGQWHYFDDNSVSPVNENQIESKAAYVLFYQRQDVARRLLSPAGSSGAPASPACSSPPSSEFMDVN
- ASSAY_NOTES: bio-layer interferometry (Octet), biotinylated protein on SSA sensors, […] global fit
pKd: −log10 of the molar value.

| MOL | pKd |
| --- | --- |
| COC(=O)c1ccc([C@H]2c3[nH]c4ccccc4c3C[C@H](C(=O)OC)N2C(=O)CCl)cc1 | 3.72 |

Taken from paper PMC9658295.
